# ASSAY NOTES: Components of the Cytosolic LPS Sensing Pathway: Gene Identification via Genome-wide siRNA Screen;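 also: robust z of the log signal after scaling to non-targeting control siRNA wells of the plate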
# CONDITION: RAW264.7 macrophages, IL-1a HTRF, actives lie on both sides, screened at 100 nM (by protocol), cells primed 5 h with Pam3CSK4 first
Screen size: about 53,000 sequences; about 3,700 (7%) were called active. This excerpt belongs to a sample that is enriched for actives.
REPORTED METRIC: z-score

Example entries begin here.
# SEQUENCE STRING, z-score
data = [
    ("CCUGGCAGACGUGGAACAATT against Ppp1r13l", "-0.102 (inactive)"),
    ("GCCAGUAUUAGCCUAGAUCTT against Vstm5", "-1.65 (inactive)"),
    ("CCAGUGCGUCACUCAGUAATT against Ssmem1", "-1.11 (inactive)"),
]

[in] Using the record for GCCAUGUUAAAUUCUCUACTT against Poln , report its z-score.
[out] 0.575 (inactive)

[in] Recorded z-score for GCCCAUCUUAGCAUUCUCUTT against Aldh4a1 , please?
[out] -1.91 (inactive)

[in] Please give the measured z-score for this sequence: GGUGGUGUUAAAAUAUACUTT against Gnl3
[out] 3.07 (active)

[in] Give the measured z-score of GGAUCCAGAAAGUCCAGAUTT against Nt5c3b .
[out] 0.918 (inactive)

[in] Please give the measured z-score for this sequence: GGCGGUGAUCCAGGGUUUATT against Klc2
[out] 2.62 (active)

[in] Name the reported z-score value associated with the sequence GGCUGUGGAAGUGCAGAACTT against Dnmt3a
[out] -2.53 (active)

[in] Could you share which z-score value was measured for CGUUAAUUGCCCUCAAAGATT against Spon1 ?
[out] 1.03 (inactive)

[in] Could you tell me which z-score is on file for CCUAAAAGUGCCUUACUAATT against Ftdc2 ?
[out] 0.679 (inactive)

[in] If you can, please state the reported z-score value of CCGUACGAUGAUAAUACCATT against Clec4a3 .
[out] 2.29 (active)

[in] Recorded z-score of GCAUGGUAUCAGGUACAUATT against Med9 , please.
[out] 2.2 (active)

[in] Sample GGUGAAGAUUGACAAGAAATT against Spout1 — what was its z-score?
[out] 0.254 (inactive)

[in] # input sequence: GCUACAUGAUGUUCAUACUTT against Srpx ; wanted: its z-score
[out] 0.38 (inactive)

[in] Need z-score, item GCACUCACGAUCAUCUUUGTT against Has1
[out] -0.513 (inactive)
